# TARGET_ENTITY: Protein LANA1 (Human herpesvirus 8 type P (isolate GK18)) (UniProt Q9QR71)
# Sequence (Q9QR71 whole entry, looked up): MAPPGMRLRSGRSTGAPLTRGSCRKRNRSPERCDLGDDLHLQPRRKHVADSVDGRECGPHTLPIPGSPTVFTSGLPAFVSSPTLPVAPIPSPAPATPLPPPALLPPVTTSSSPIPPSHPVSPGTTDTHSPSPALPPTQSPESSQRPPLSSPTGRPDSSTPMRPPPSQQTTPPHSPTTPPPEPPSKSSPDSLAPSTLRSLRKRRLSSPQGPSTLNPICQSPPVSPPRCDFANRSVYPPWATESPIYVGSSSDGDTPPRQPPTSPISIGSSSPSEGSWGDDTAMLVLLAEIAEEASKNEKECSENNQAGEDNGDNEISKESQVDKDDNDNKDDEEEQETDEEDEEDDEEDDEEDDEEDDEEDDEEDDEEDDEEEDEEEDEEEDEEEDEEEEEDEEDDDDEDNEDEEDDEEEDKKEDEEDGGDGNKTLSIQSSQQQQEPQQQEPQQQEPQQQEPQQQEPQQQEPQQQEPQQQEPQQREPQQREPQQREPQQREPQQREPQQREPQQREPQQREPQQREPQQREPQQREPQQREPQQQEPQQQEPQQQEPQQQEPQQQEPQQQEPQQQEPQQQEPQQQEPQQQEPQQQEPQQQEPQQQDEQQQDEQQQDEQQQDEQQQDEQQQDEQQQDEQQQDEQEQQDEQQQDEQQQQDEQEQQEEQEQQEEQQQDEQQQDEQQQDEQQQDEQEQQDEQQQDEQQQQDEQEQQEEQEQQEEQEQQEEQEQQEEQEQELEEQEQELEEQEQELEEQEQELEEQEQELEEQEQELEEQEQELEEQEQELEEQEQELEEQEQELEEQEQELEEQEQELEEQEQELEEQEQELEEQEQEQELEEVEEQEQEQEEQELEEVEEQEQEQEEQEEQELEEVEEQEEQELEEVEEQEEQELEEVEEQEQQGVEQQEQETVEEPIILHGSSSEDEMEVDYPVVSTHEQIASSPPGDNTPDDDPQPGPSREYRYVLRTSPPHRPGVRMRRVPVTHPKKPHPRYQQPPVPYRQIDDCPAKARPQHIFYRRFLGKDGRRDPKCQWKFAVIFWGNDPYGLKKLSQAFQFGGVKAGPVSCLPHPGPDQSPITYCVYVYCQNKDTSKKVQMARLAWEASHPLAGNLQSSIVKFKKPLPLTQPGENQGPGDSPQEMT
# ASSAY_METHOD_TEXT: blockers of LANA interaction with H2A/H2B – biochemical, FP readout, HTS, primary screen (AID 2629)
# MEASUREMENT_SETUP: cell-free LANA-H2A/H2B peptide, fluorescence polarization, hits give high values, concentration not given here
The whole screen tested about 320,000 compounds, of which about 1,900 (0.59%) were called active. Many of the other results were omitted from the sample, so actives are more common in it than they were.
inhibition for assorted molecules

| MOLECULE | TARGET_ENTITY | inhibition [%] |
| --- | --- | --- |
| O=C(NCCN1CCOCC1)c1cc(-c2cccs2)nc2ccccc12 | Protein LANA1 (Human herpesvirus 8 type P (isolate GK18)) (UniProt Q9QR71) | 14 |
| CCN(CC)CCOc1ccc2c(c1)C(=NNC(=O)c1ccccn1)c1cc(OCCN(CC)CC)ccc1-2 | Protein LANA1 (Human herpesvirus 8 type P (isolate GK18)) (UniProt Q9QR71) | -1.56 |
| Cc1nnc(-c2ccc(Oc3ccc(C)c(C)c3)c([N+](=O)[O-])c2)o1 | Protein LANA1 (Human herpesvirus 8 type P (isolate GK18)) (UniProt Q9QR71) | 0.884 |
| Nc1c(-c2ccccc2)nnn1Cc1ccccc1 | Protein LANA1 (Human herpesvirus 8 type P (isolate GK18)) (UniProt Q9QR71) | -2.36 |
| CN(c1ccccc1)S(=O)(=O)c1ccc(Cl)c(C(=O)OCC(=O)NCc2ccco2)c1 | Protein LANA1 (Human herpesvirus 8 type P (isolate GK18)) (UniProt Q9QR71) | -3.84 |
| COc1ccc(C(=O)OCC(=O)NCCCc2ccccc2)cc1OC | Protein LANA1 (Human herpesvirus 8 type P (isolate GK18)) (UniProt Q9QR71) | -0.725 |
| COC(=O)c1ccc(S(=O)(=O)N2CCC(c3nc4ccccc4o3)CC2)cc1 | Protein LANA1 (Human herpesvirus 8 type P (isolate GK18)) (UniProt Q9QR71) | 1.89 |
| COc1ccc(OCCn2ccnc2C)cc1 | Protein LANA1 (Human herpesvirus 8 type P (isolate GK18)) (UniProt Q9QR71) | -0.22 |
| Cc1cc(C)c(C)c(S(=O)(=O)N[C@@H](C)C(=O)OC(C)C(=O)NC(N)=O)c1C (some centres not stated) | Protein LANA1 (Human herpesvirus 8 type P (isolate GK18)) (UniProt Q9QR71) | 0.241 |
| Cc1ccc(S(=O)(=O)N(CC(O)CN2CCCCC2)c2cccc([N+](=O)[O-])c2)cc1 (configuration not stated) | Protein LANA1 (Human herpesvirus 8 type P (isolate GK18)) (UniProt Q9QR71) | 7.02 |
| Cc1ccc(S(=O)(=O)NC(C(=O)N2CCOCCOCCOCCOCC2)c2ccccc2)cc1 (configuration not stated) | Protein LANA1 (Human herpesvirus 8 type P (isolate GK18)) (UniProt Q9QR71) | -3.32 |
| CCOc1ccc(S(=O)(=O)N(CC(=O)O)c2ccccc2)cc1 | Protein LANA1 (Human herpesvirus 8 type P (isolate GK18)) (UniProt Q9QR71) | 18.5 |
| CC(C)Oc1ccc(C(=O)NC(C)(C)CO)cc1 | Protein LANA1 (Human herpesvirus 8 type P (isolate GK18)) (UniProt Q9QR71) | 2.55 |
| CCN(CCCCOC(=O)c1ccc(OC)c(OC)c1)C(C)Cc1ccc(OC)cc1 (configuration not stated) | Protein LANA1 (Human herpesvirus 8 type P (isolate GK18)) (UniProt Q9QR71) | 8.66 |
| CCOC(=O)c1[nH]c2ccc(OC)cc2c1NC(=O)N1CCOCC1 | Protein LANA1 (Human herpesvirus 8 type P (isolate GK18)) (UniProt Q9QR71) | -1.57 |
| CCCCN(C)CCCNC(=O)c1cc(-c2cccs2)nc2ccccc12 | Protein LANA1 (Human herpesvirus 8 type P (isolate GK18)) (UniProt Q9QR71) | -1.81 |
| CS(=O)(=O)N(Cc1ccccc1Cl)c1ccc(C(=O)NCc2cccnc2)cc1 | Protein LANA1 (Human herpesvirus 8 type P (isolate GK18)) (UniProt Q9QR71) | 3.45 |
| CN(C)C(=O)Cn1c(=O)n(S(=O)(=O)c2ccccc2)c2ccccc21 | Protein LANA1 (Human herpesvirus 8 type P (isolate GK18)) (UniProt Q9QR71) | 14 |
| COc1ccc(C(=O)COC(=O)C(O)c2ccccc2)c(OC)c1 (configuration not stated) | Protein LANA1 (Human herpesvirus 8 type P (isolate GK18)) (UniProt Q9QR71) | -6.19 |
| CCOC(=O)N1CCN(CCC(=O)Nc2cc(OC)ccc2OC)CC1 | Protein LANA1 (Human herpesvirus 8 type P (isolate GK18)) (UniProt Q9QR71) | -0.496 |
| CCn1cc(C(=O)NCCCN2CCCCCC2)c(=O)c2cc(S(=O)(=O)N3CCc4ccccc4C3)ccc21 | Protein LANA1 (Human herpesvirus 8 type P (isolate GK18)) (UniProt Q9QR71) | 1.1 |
| COc1ccc(C(CCN(Cc2ccc(OC)c(OC)c2)C(=O)CCl)c2ccccc2)cc1 (configuration not stated) | Protein LANA1 (Human herpesvirus 8 type P (isolate GK18)) (UniProt Q9QR71) | -1.72 |

###

Reported inhibition by item:
# TARGET_ENTITY: Protein LANA1 (Human herpesvirus 8 type P (isolate GK18)) (UniProt Q9QR71)
# ASSAY_METHOD_TEXT: blockers of LANA interaction with H2A/H2B – biochemical, FP readout, HTS, primary screen (AID 2629)
# MEASUREMENT_SETUP: cell-free LANA-H2A/H2B peptide, fluorescence polarization, hits give high values, concentration not given here
Out of some 320,000 compounds screened, about 1,900 (0.59%) were called active. This excerpt belongs to a sample that is enriched for actives.
METRIC: inhibition

| COMPOUND | TARGET_ENTITY | RESULT |
| --- | --- | --- |
| CCC(=O)Nc1nnc(S(=O)(=O)N2CCCc3ccccc32)s1 | Protein LANA1 (Human herpesvirus 8 type P (isolate GK18)) (UniProt Q9QR71) | 3.1% (inactive) |
| COc1ccccc1NC(=O)COC(=O)CNC(=O)C1CCCCC1 | Protein LANA1 (Human herpesvirus 8 type P (isolate GK18)) (UniProt Q9QR71) | 2.31% (inactive) |
| O=C1C=CC(=O)N1c1ccc(N2CCCCC2)cc1 | Protein LANA1 (Human herpesvirus 8 type P (isolate GK18)) (UniProt Q9QR71) | 6.75% (active) |
| CC(=O)COc1ccc2c(-c3ccccc3)cc(=O)oc2c1 | Protein LANA1 (Human herpesvirus 8 type P (isolate GK18)) (UniProt Q9QR71) | 4.47% (inactive) |
| Cc1cccc(C(=O)NCC(=O)OCC(=O)N(C)CC(=O)Nc2ccccc2Cl)c1 | Protein LANA1 (Human herpesvirus 8 type P (isolate GK18)) (UniProt Q9QR71) | -3.61% (inactive) |
| CC(=O)Nc1ccc(S(=O)(=O)Nc2ccc(N3CCCCC3)cc2)cc1 | Protein LANA1 (Human herpesvirus 8 type P (isolate GK18)) (UniProt Q9QR71) | 0.693% (inactive) |
| CSCC(NS(=O)(=O)c1ccc(C)cc1)C(=O)O (stereo unspecified) | Protein LANA1 (Human herpesvirus 8 type P (isolate GK18)) (UniProt Q9QR71) | 4.08% (inactive) |
| CC1Cc2cc(/C(O)=C3\C(=O)C(=O)N(CCN4CCOCC4)C3c3ccccc3F)ccc2O1 (stereo unspecified) | Protein LANA1 (Human herpesvirus 8 type P (isolate GK18)) (UniProt Q9QR71) | -0.116% (inactive) |
| CSCCC(NS(=O)(=O)c1ccc(C)cc1)C(=O)N1CCCC1 (stereo unspecified) | Protein LANA1 (Human herpesvirus 8 type P (isolate GK18)) (UniProt Q9QR71) | 10.1% (active) |
| Cc1ccc2c(c1)C(c1ccccc1)N(C(=O)c1ccc(F)cc1)CC(=O)N2 (stereo unspecified) | Protein LANA1 (Human herpesvirus 8 type P (isolate GK18)) (UniProt Q9QR71) | -6.68% (inactive) |
| O=C(CN1CCCC1)Nc1sc2c(c1C(=O)Nc1ccccc1)CCCC2 | Protein LANA1 (Human herpesvirus 8 type P (isolate GK18)) (UniProt Q9QR71) | -9.6% (inactive) |

###

# TARGET_ENTITY: Protein LANA1 (Human herpesvirus 8 type P (isolate GK18))
# ASSAY_METHOD_TEXT: blockers of LANA interaction with H2A/H2B – biochemical, FP readout, HTS, primary screen (AID 2629)
# MEASUREMENT_SETUP: cell-free LANA-H2A/H2B peptide, fluorescence polarization, hits give high values, concentration not given here
In all, about 320,000 compounds went through this assay and about 1,900 (0.59%) were called active. The entries come from a sample that favours actives as a whole.

| COMPOUND | READOUT_UNITS | inhibition |
| --- | --- | --- |
| Cc1ccc(C)c(NC(=O)COC(=O)CSc2ccccc2)c1 | % | -1.08 |
| Cc1noc(C)c1NC(=O)Nc1cccc2c1O[C@H](CN(C)S(=O)(=O)c1c(C)noc1C)[C@@H](C)CN([C@H](C)CO)C2=O | % | -5.54 |
| Cc1ccc(NC(=O)C(C)Sc2nnc(C3CC3)n2C2CC2)cc1S(=O)(=O)N1CCOCC1 (stereo unspecified) | % | -1.97 |
| COc1cc(NC(=O)COC(=O)CSc2ccc3ccccc3c2)c(C)cc1[N+](=O)[O-] | % | 10.3 |
| NNC(=O)C1CC(O)CN1S(=O)(=O)c1ccc(Cl)cc1 (stereo unspecified) | % | 18 |
| CC1CCCN(S(=O)(=O)c2ccc(-c3ccc(=O)[nH]n3)o2)C1 (stereo unspecified) | % | 5.98 |
| O=C(NCCc1ccc(F)cc1)c1ccc2nccnc2c1 | % | 7.1 |
| CCn1ccnc1CN1CCCC(C(=O)c2ccc3c4c(cccc24)CC3)C1 (stereo unspecified) | % | 25.9 |
| C=CCN(C(=O)Cn1ncc2c1-c1cc(C)ccc1OC2)c1ccccc1 | % | -5.38 |
| Cc1ncoc1C(=O)N1CCCC(C(=O)c2ccc3c4c(cccc24)CC3)C1 (stereo unspecified) | % | 1.25 |
| O=C(/C=C/c1ccc([N+](=O)[O-])cc1)NCCSCc1ccco1 | % | 5.42 |
| C=C(C)CNC(=S)/N=c1\scc(C)n1CC | % | 3.02 |
| Cc1ccc2c(c1)N(CC(=O)NCCCN1CCCCC1)C(=O)c1cccnc1O2 | % | 3.43 |
| COc1cc(NC(=O)COC(=O)c2cnc(C)cn2)c(C)cc1[N+](=O)[O-] | % | 0.629 |
| Cc1nc(NC(CC(C)C)C(=O)O)c2nc(C)oc2n1 (stereo unspecified) | % | 11.3 |
| Cc1cc(NC(=O)COC(=O)COc2ccc(Cl)cc2C)c([N+](=O)[O-])cc1C | % | 18.3 |
| COc1ccccc1NC(=O)C1CCCN1S(=O)(=O)c1ccc(Cl)cc1 (stereo unspecified) | % | -0.219 |
| COc1ccc(OCC(=O)Nc2cc(C)c(Cl)cc2OC)c([N+](=O)[O-])c1 | % | 3 |
| CC(C)(C)n1c(=O)[nH]c2c(c1=O)CCC2 | % | 23.6 |
| COc1ccc(NC(=O)Nc2ccc3c(c2)C(=O)N([C@H](C)CO)C[C@H](C)[C@@H](CN(C)C(=O)Nc2ccc4c(c2)OCO4)O3)cc1 | % | 1.05 |
| CC(C)(C)c1ccc(C(=O)NCc2nnc(SCC(=O)N3CCCc4ccccc43)n2-c2ccccc2)cc1 | % | 2.13 |
